- Tested on: Nilaparvata lugens (Brown Plant Hopper)
- assay text: Nilaparvata lugens (Brown Plant Hopper) rice seedling spray test, mortality
- Format: in vivo
- reported conditions: Nilaparvata lugens, read-out: Control/%

{"columns": ["compound", "pest or weed control at 50 ppm (%)"],
 "data": [
  ["Cc1cc(C2=NOC(c3cc(Cl)c(Br)c(Cl)c3)(C(F)(F)F)C2)ccc1C(=O)NC1(C)CSC1 (stereo not drawn) [drawing 36]", 0],
  ["Cc1cc(C2=NOC(c3cc(Cl)c(Br)c(Cl)c3)(C(F)(F)F)C2)ccc1C(=O)NC1CSC1 (stereo not drawn) [drawing 35]", 80],
  ["O=C(NC1CSC1)c1ccc(C2=NO[C@@](c3cc(Cl)cc(Cl)c3)(C(F)(F)F)C2)cc1Cl [drawing 37]", 45],
  ["CC1(NC(=O)c2ccc(C3=NO[C@@](c4cc(Cl)cc(Cl)c4)(C(F)(F)F)C3)cc2Cl)CSC1 [drawing 38]", 30],
  ["Cc1cc(C2=NOC(c3cc(Cl)cc(Cl)c3)(C(F)(F)F)C2)ccc1C(=O)NC1(C)CSC1 (stereo not drawn) [drawing 30]", 0],
  ["Cc1cc(C2=NOC(c3cc(Cl)cc(Cl)c3)(C(F)(F)F)C2)ccc1C(=O)NC1CSC1 (stereo not drawn) [drawing 29]", 79]
]}

* * *

- Test system: Nilaparvata lugens (Brown Plant Hopper)
- assay text: Nilaparvata lugens (Brown Plant Hopper) rice seedling spray test, mortality
- Format: in vivo
- reported conditions: Nilaparvata lugens (Brown plant hopper), application rate 50 ppm; read-out: Control/%
Some compounds, each annotated with its measured pest or weed control at 50 ppm.

{"columns": ["compound", "pest or weed control at 50 ppm [%]"],
 "data": [
  ["Cc1cc(C2=NCC(c3cc(Cl)cc(Cl)c3)(C(F)(F)F)C2)ccc1C(=O)NC1CSC1 (stereo not shown) [drawing 31]", 100],
  ["Cc1cc(C2=NCC(c3cc(Cl)cc(Cl)c3)(C(F)(F)F)C2)ccc1C(=O)NC1(C)CS(=O)(=O)C1 (stereo not shown) [drawing 34]", 0],
  ["Cc1cc(C2=NCC(c3cc(Cl)cc(Cl)c3)(C(F)(F)F)C2)ccc1C(=O)NC1CS(=O)(=O)C1 (stereo not shown) [drawing 33]", 100],
  ["Cc1cc(C2=NCC(c3cc(Cl)cc(Cl)c3)(C(F)(F)F)C2)ccc1C(=O)NC1(C)CSC1 (stereo not shown) [drawing 32]", 0]
]}

* * *

- System: Nilaparvata lugens (Brown Plant Hopper)
- assay text: Nilaparvata lugens (Brown Plant Hopper) rice seedling spray test, mortality
- Type: in vivo
- reported conditions: Nilaparvata lugens (Brown plant hopper), application rate 25 ppm; read-out: Control/%

{"columns": ["compound", "tgt", "pest or weed control at 25 ppm"],
 "data": [
  ["Cc1cc(C2=NCC(c3cc(Cl)cc(Cl)c3)(C(F)(F)F)C2)ccc1C(=O)NC1CS(=O)(=O)C1 (stereo not shown) [drawing 33]", "Nilaparvata lugens (Brown Plant Hopper)", "93%"],
  ["Cc1cc(C2=NCC(c3cc(Cl)cc(Cl)c3)(C(F)(F)F)C2)ccc1C(=O)NC1(C)CSC1 (stereo not shown) [drawing 32]", "Nilaparvata lugens (Brown Plant Hopper)", "0%"],
  ["Cc1cc(C2=NCC(c3cc(Cl)cc(Cl)c3)(C(F)(F)F)C2)ccc1C(=O)NC1(C)CS(=O)(=O)C1 (stereo not shown) [drawing 34]", "Nilaparvata lugens (Brown Plant Hopper)", "0%"],
  ["Cc1cc(C2=NCC(c3cc(Cl)cc(Cl)c3)(C(F)(F)F)C2)ccc1C(=O)NC1CSC1 (stereo not shown) [drawing 31]", "Nilaparvata lugens (Brown Plant Hopper)", "100%"]
]}

These measurements were taken from patent US20150189883A1.
